test system: PDC 899932-113-R3-J6 complex spheroid viability; assay: Anticancer human tumor 899932-113-R3-J6-PDC patient-derived melanoma cell line growth inhibition [RAS]; conditions: curve of first compound; second compound 0.1 µM
measurement-type: IC50 (nM)

1 = CC(C)NCC(C(=O)N1CCN(c2ncnc3c2C(C)CC3O)CC1)c1ccc(Cl)cc1 (stereo unspecified) + C=CC(=O)N1CCN(c2nc(OCC3CCCN3C)nc3c(F)c(-c4nc(N)cc(C)c4C(F)(F)F)c(Cl)cc23)C(C)C1
2 = CCN1CCN(Cc2ccc(Nc3ncc(F)c(-c4cc(F)c5nc(C)n(C(C)C)c5c4)n3)nc2)CC1 + C#Cc1c(F)ccc2cc(O)cc(-c3ncc4c(N5CC6CCC(C5)N6)nc(OCC56CCCN5CC(F)C6)nc4c3F)c12
Problem: Returns: the argument ( 1 or 2 ) having the larger IC50. Choose, then provide that item's label.
Result: 1
(1: 5830 nM, 2: 526 nM)

A = C[C@@H](NC(=O)c1ncnc(N)c1Cl)c1ncc(C(=O)Nc2cc(C(F)(F)F)c(Cl)cn2)s1 + C=CC(=O)N1CCN(c2nc(OCC3CCCN3C)nc3c(F)c(-c4nc(N)cc(C)c4C(F)(F)F)c(Cl)cc23)C(C)C1
B = CC1(C)CCC(Nc2ncc(C(F)(F)F)c(-c3c[nH]c4c(P(C)(C)=O)c(C#N)ccc34)n2)CN1 (stereo unspecified) + C#Cc1c(F)ccc2cc(O)cc(-c3ncc4c(N5CC6CCC(C5)N6)nc(OCC56CCCN5CC(F)C6)nc4c3F)c12
C = CC(Nc1ccc2c(c1)OCCn1cc(N3C(=O)OCC3C(F)F)nc1-2)C(N)=O (stereo unspecified) + C#Cc1c(F)ccc2cc(O)cc(-c3ncc4c(N5CC6CCC(C5)N6)nc(OCC56CCCN5CC(F)C6)nc4c3F)c12
Problem: List from greatest to least IC50. Ranked list of labels, please, in the requested order.
Result: A, C, B
(A: 7390 nM, C: 2610 nM, B: 15.3 nM)

###

system: PDC 899932-113-R3-J6 complex spheroid viability; assay: Anticancer human tumor 899932-113-R3-J6-PDC cell line growth inhibition [RAS]; details: second compound 0.03 µM; first compound 0.000949 µM; stronger effect = lower value;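 as to viability, T/C: spheroids exposed to agents for seven days before readout; 100% = DMSO vehicle control wells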
measurement-type: viability, T/C (%)
Lab book: enter the figure in %, no units written.

CC1(C)CCC(Nc2ncc(C(F)(F)F)c(-c3c[nH]c4c(P(C)(C)=O)c(C#N)ccc34)n2)CN1 (centres undefined) + CCn1c(-c2cccnc2C(C)OC)c2c3cc(ccc31)N1CCOC(CC(NC(=O)C(C(C)C)N(C)C(=O)C3(F)CCN(C(=O)C#CC(C)(C)N(C)C)CC3)C(=O)N3CCCC(N3)C(=O)OCC(C)(C)C2)C1
104
CCc1c2c(nc3ccc(O)cc13)-c1cc3c(c(=O)n1C2)COC(=O)[C@]3(O)CC + CCn1c(-c2cccnc2C(C)OC)c2c3cc(ccc31)N1CCOC(CC(NC(=O)C(C(C)C)N(C)C(=O)C3(F)CCN(C(=O)C#CC(C)(C)N(C)C)CC3)C(=O)N3CCCC(N3)C(=O)OCC(C)(C)C2)C1
93.7

Problem: Quick check: viability, T/C on PDC 899932-113-R3-J6 complex spheroid viability, item CC1(C)CCC(Nc2ncc(C(F)(F)F)c(-c3c[nH]c4c(P(C)(C)=O)c(C#N)ccc34)n2)CN1 (centres undefined) + CCn1c(-c2cc(N3CCN(C)CC3)cnc2C(C)OC)c2c3cc(ccc31)-c1csc(n1)CC(NC(=O)C1CC1C)C(=O)N1CCCC(N1)C(=O)OCC(C)(C)C2 ?
Result: 2.41

Problem: Try this compound too: CCc1c2c(nc3ccc(O)cc13)-c1cc3c(c(=O)n1C2)COC(=O)[C@]3(O)CC + CCn1c(-c2cc(N3CCN(C)CC3)cnc2C(C)OC)c2c3cc(ccc31)-c1csc(n1)CC(NC(=O)C1CC1C)C(=O)N1CCCC(N1)C(=O)OCC(C)(C)C2
Result: 2.49

###

// values below are reported viability, T/C
test system: PDC 899932-113-R3-J6 complex spheroid viability; assay: Anticancer human tumor 899932-113-R3-J6-PDC cell line growth inhibition [RAS]; settings: second compound 0.003 µM; first compound 0.0316 µM; stronger effect = lower value;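 as to viability, T/C: spheroids exposed to agents for seven days before readout; 100% = DMSO vehicle control wells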
Lab book: enter the figure in %, no units written.

Below are worked cases with known answers.
NC1c2ccccc2OC12CCN(c1cnc3c(N4CCCc5ncccc54)n[nH]c3n1)CC2 (stereo not drawn) + CCn1c(-c2cccnc2C(C)OC)c2c3cc(ccc31)N1CCOC(CC(NC(=O)C(C(C)C)N(C)C(=O)C3(F)CCN(C(=O)C#CC(C)(C)N(C)C)CC3)C(=O)N3CCCC(N3)C(=O)OCC(C)(C)C2)C1
113
NC1c2ccccc2OC12CCN(c1cnc3c(N4CCCc5ncccc54)n[nH]c3n1)CC2 (stereo not drawn) + CCn1c(-c2cc(N3CCN(C)CC3)cnc2C(C)OC)c2c3cc(ccc31)-c1csc(n1)CC(NC(=O)C1CC1C)C(=O)N1CCCC(N1)C(=O)OCC(C)(C)C2
31.8
CC(C)NCC(C(=O)N1CCN(c2ncnc3c2C(C)CC3O)CC1)c1ccc(Cl)cc1 (stereo not drawn) + CCn1c(-c2cc(N3CCN(C)CC3)cnc2C(C)OC)c2c3cc(ccc31)-c1csc(n1)CC(NC(=O)C1CC1C)C(=O)N1CCCC(N1)C(=O)OCC(C)(C)C2
34.5
C[C@@H](NC(=O)c1ncnc(N)c1Cl)c1ncc(C(=O)Nc2cc(C(F)(F)F)c(Cl)cn2)s1 + CCn1c(-c2cc(N3CCN(C)CC3)cnc2C(C)OC)c2c3cc(ccc31)-c1csc(n1)CC(NC(=O)C1CC1C)C(=O)N1CCCC(N1)C(=O)OCC(C)(C)C2
66.6
CC(=O)OC12COC1CC(O)C1(C)C(=O)C(O)C3=C(C)C(OC(=O)C(O)C(NC(=O)OC(C)(C)C)c4ccccc4)CC(O)(C(OC(=O)c4ccccc4)C21)C3(C)C (stereo not drawn) + CCn1c(-c2cccnc2C(C)OC)c2c3cc(ccc31)N1CCOC(CC(NC(=O)C(C(C)C)N(C)C(=O)C3(F)CCN(C(=O)C#CC(C)(C)N(C)C)CC3)C(=O)N3CCCC(N3)C(=O)OCC(C)(C)C2)C1
29.2

Problem: Quick check: viability, T/C on PDC 899932-113-R3-J6 complex spheroid viability, item Nc1ccn(C2OC(CO)C(O)C2(F)F)c(=O)n1 (stereo not drawn) + CCn1c(-c2cc(N3CCN(C)CC3)cnc2C(C)OC)c2c3cc(ccc31)-c1csc(n1)CC(NC(=O)C1CC1C)C(=O)N1CCCC(N1)C(=O)OCC(C)(C)C2 ?
Result: 9.17

Problem: Try this compound too: CCC(CC)c1cc(NC2CCC(N)C2)n2nccc2n1 (stereo not drawn) + CCn1c(-c2cccnc2C(C)OC)c2c3cc(ccc31)N1CCOC(CC(NC(=O)C(C(C)C)N(C)C(=O)C3(F)CCN(C(=O)C#CC(C)(C)N(C)C)CC3)C(=O)N3CCCC(N3)C(=O)OCC(C)(C)C2)C1
Result: 95.8

Problem: Try this compound too: CC(C)n1nc(-c2ccc3oc(N)nc3c2)c2c(N)ncnc21 + CCn1c(-c2cccnc2C(C)OC)c2c3cc(ccc31)N1CCOC(CC(NC(=O)C(C(C)C)N(C)C(=O)C3(F)CCN(C(=O)C#CC(C)(C)N(C)C)CC3)C(=O)N3CCCC(N3)C(=O)OCC(C)(C)C2)C1
Result: 65

###

tested on: PDC 899932-113-R3-J6 complex spheroid viability; assay: Anticancer human tumor 899932-113-R3-J6-PDC cell line growth inhibition [RAS]; details: second compound 0.1 µM; first compound 0.0949 µM; stronger effect = lower value;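 as to viability, T/C: spheroids exposed to agents for seven days before readout; 100% = DMSO vehicle control wells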
// values below are reported viability, T/C
Lab book: enter the figure in %, no units written.

Below are worked cases with known answers.
CC1(C)CCC(Nc2ncc(C(F)(F)F)c(-c3c[nH]c4c(P(C)(C)=O)c(C#N)ccc34)n2)CN1 (centres undefined) + C=CC(=O)N1CCN(c2nc(OCC3CCCN3C)nc3c(F)c(-c4nc(N)cc(C)c4C(F)(F)F)c(Cl)cc23)C(C)C1
16.4
CCc1c2c(nc3ccc(O)cc13)-c1cc3c(c(=O)n1C2)COC(=O)[C@]3(O)CC + C#Cc1c(F)ccc2cc(O)cc(-c3ncc4c(N5CC6CCC(C5)N6)nc(OCC56CCCN5CC(F)C6)nc4c3F)c12
44.5
CCc1c2c(nc3ccc(O)cc13)-c1cc3c(c(=O)n1C2)COC(=O)[C@]3(O)CC + C=CC(=O)N1CCN(c2nc(OCC3CCCN3C)nc3c(F)c(-c4nc(N)cc(C)c4C(F)(F)F)c(Cl)cc23)C(C)C1
43.2

Problem: For CC1(C)CCC(Nc2ncc(C(F)(F)F)c(-c3c[nH]c4c(P(C)(C)=O)c(C#N)ccc34)n2)CN1 (centres undefined) + C#Cc1c(F)ccc2cc(O)cc(-c3ncc4c(N5CC6CCC(C5)N6)nc(OCC56CCCN5CC(F)C6)nc4c3F)c12 , what is its reported viability, T/C?
Result: 14.3
